# tested-system: KRAS G12V (Homo sapiens (Human), UniProt P01116, G12V)
# Sequence (P01116 other isoform, or with tags, fused parts or gaps G12V): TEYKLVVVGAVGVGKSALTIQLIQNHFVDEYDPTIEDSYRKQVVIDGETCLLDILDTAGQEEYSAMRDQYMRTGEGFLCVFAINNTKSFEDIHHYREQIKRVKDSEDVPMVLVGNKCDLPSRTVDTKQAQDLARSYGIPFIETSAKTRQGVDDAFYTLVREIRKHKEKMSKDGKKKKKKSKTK
# test-description: SPR binding affinity and kinetics, GTPγS-loaded KRAS G12V
# condition-summary: GTPγS loaded protein, geomean
parameter: Kd

compound=C=C1CN2CCC[C@@]2(COc2nc3c4c(nc(-c5cccc6[nH]ncc56)c(F)c4n2)OC[C@@H]2COCCCN32)C1 parameter=Kd experimental_value="> 10 µM"
compound=Fc1c(-c2cccc3[nH]ncc23)nc2c3c(nc(OC[C@@]45CCCN4C[C@H](F)C5)nc13)N1CCCOC[C@H]1CO2 parameter=Kd experimental_value="> 1 µM"

Problem: Kd for C=C1CN2CCC[C@@]2(COc2nc3c4c(nc(-c5c6c(cc7[nH]ncc57)CCC[C@H]6OC)c(F)c4n2)OC[C@@H]2COCCCN32)C1 (single isomer, unassigned) [Example 57] ?
Result: > 1 µM

----------
Measured log10(Kd) of individual entries
# tested-system: KRAS G12V (Homo sapiens (Human), UniProt P01116, G12V)
# test-description: SPR binding affinity and kinetics, GTPγS-loaded KRAS G12V
# condition-summary: GTPγS loaded protein, geomean
Log10 applied to Kd; unit prior to transform: nM.

Example molecules with recorded log10(Kd):
molecule="C/C=C1\\CN2CCC[C@@]2(COc2nc3c4c(nc(-c5c(C6CC6)c(Cl)cc6[nH]ncc56)c(F)c4n2)OC[C@@H]2COCCCN32)C1 [Example 26]" parameter=log10(Kd) experimental_value=0.00
molecule="C=C1CN2CCC[C@@]2(COc2nc3c4c(nc(-c5c(C6CC6)c(Cl)cc6[nH]ncc56)c(F)c4n2)OC[C@@H]2COCCCN32)C1 [Example 2]" parameter=log10(Kd) experimental_value=0.60
molecule="Fc1c(-c2c(C3CC3)c(Cl)cc3[nH]ncc23)nc2c3c(nc(OC[C@@]45CCCN4CC(=C4CCOCC4)C5)nc13)N1CCCOC[C@H]1CO2 [Example 42]" parameter=log10(Kd) experimental_value=1.51

Problem: Entry C=C1CN2CCC[C@@]2(COc2nc3c4c(nc(-c5c(C)ccc6[nH]ncc56)c(F)c4n2)OC[C@@H]2COCCCN32)C1 [Example 5] has what log10(Kd)?
Result: 3.16

Problem: Repeat with Fc1c(-c2c(C3CC3)c(Cl)cc3[nH]ncc23)nc2c3c(nc(OC[C@@]45CCCN4CC4(CC4)C5)nc13)N1CCCOC[C@H]1CO2 [Example 18]
Result: 1.79

Problem: What about this molecule? C=C1CN2CCC[C@@]2(COc2nc3c4c(nc(-c5c(C(F)F)ccc6[nH]ncc56)c(F)c4n2)OC[C@@H]2COCCCN32)C1 [Example 10]
Result: 3.45

Problem: Param item: F/C=C1\CN2CCC[C@@]2(COc2nc3c4c(nc(-c5c(C6CC6)c(Cl)cc6[nH]ncc56)c(F)c4n2)OC[C@@H]2COCCCN32)C1 [Example 16]
Result: 0.60

Problem: Same lookup for C=C1CN2CCC[C@@]2(COc2nc3c4c(nc(-c5c(Cl)c(Cl)cc6[nH]ncc56)c(F)c4n2)OC[C@@H]2COCCCN32)C1 [Example 11] , please.
Result: 1.46

Problem: What would you report for C=C1CN2CCC[C@@]2(COc2nc3c4c(nc(-c5c(Cl)c(C)cc6[nH]ncc56)c(F)c4n2)OC[C@@H]2COCCCN32)C1 [Example 8] ?
Result: 2.02

Problem: Next record, please: C=C1CN2C[C@H](O)C[C@@]2(COc2nc3c4c(nc(-c5c(C6CC6)c(Cl)cc6[nH]ncc56)c(F)c4n2)OC[C@@H]2COCCCN32)C1 [Example 25]
Result: 0.30

Problem: Do the same for C/C=C1/CN2CCC[C@@]2(COc2nc3c4c(nc(-c5c(C6CC6)c(Cl)cc6[nH]ncc56)c(F)c4n2)OC[C@@H]2COCCCN32)C1 [Example 27] please
Result: 0.78

Problem: Also C=C1CN2CCC[C@@]2(COc2nc3c4c(nc(-c5c([C@H]6C[C@H]6C)c(Cl)cc6[nH]ncc56)c(F)c4n2)OC[C@@H]2COCCCN32)C1 (single isomer, unassigned) [Example 31] , if possible.
Result: 0.70

Problem: Check OC/C=C1\CN2CCC[C@@]2(COc2nc3c4c(nc(-c5c(C6CC6)c(Cl)cc6[nH]ncc56)c(F)c4n2)OC[C@@H]2COCCCN32)C1 [Example 44] too.
Result: 0.48
